Target Under Test: FGFR3 (UniProt P22607)
Sequence (P22607 whole entry, looked up): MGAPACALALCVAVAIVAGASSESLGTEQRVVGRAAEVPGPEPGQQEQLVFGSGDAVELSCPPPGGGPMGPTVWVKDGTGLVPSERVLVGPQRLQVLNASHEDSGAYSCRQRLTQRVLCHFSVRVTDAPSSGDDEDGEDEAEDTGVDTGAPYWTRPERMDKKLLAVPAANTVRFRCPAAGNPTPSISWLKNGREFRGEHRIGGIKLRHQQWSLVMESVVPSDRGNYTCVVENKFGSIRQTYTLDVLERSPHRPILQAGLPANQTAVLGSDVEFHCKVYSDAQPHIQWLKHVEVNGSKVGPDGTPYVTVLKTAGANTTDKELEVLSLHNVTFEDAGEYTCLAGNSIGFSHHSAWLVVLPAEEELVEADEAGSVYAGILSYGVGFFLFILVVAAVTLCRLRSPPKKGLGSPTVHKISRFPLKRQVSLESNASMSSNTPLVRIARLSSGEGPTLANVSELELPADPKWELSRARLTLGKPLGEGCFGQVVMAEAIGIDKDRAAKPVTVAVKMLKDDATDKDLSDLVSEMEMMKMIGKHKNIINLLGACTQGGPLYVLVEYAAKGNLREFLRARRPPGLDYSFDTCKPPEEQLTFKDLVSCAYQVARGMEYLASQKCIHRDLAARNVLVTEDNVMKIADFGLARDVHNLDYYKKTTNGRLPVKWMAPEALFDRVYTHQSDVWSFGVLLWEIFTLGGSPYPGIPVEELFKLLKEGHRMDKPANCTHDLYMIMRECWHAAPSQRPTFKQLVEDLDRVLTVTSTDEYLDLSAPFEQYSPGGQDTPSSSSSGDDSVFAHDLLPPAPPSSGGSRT
Method Summary: phosphorylation enrichment, bacterial display (enrichment ratio); higher = better substrate or ligand; peptides without Tyr show the background;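 further: 11-residue human phosphosite peptides and single-mutation variants displayed on the E. coli surface, counted by deep sequencing, each peptide's frequency after selection divided by its frequency in the unselected input library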;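 further: frequency after pTyr selection over input frequency; kinase dosed for 20-30% of maximal phosphorylation in three min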
Outcome label depends on phosphorylation enrichment relative to 0.6: at/above gives Y, below gives N.

Would you please look over these solved cases?
>>> df
                     sequence_data       target_under_test  assigned_class
0         PESILYRKFTT [NTRK1_Y701]  FGFR3 (UniProt P22607)               Y
1      ALKKPYSVLYK [RPF2_Y59_G60S]  FGFR3 (UniProt P22607)               N
2          ADIETYLLEKS [MYH7_Y266]  FGFR3 (UniProt P22607)               Y
3  VAVVQYSGMGQ [COL6A1_Y878_T881M]  FGFR3 (UniProt P22607)               N

Q: // inclusive: phosphorylation enrichment at least 0.6? input: GMRHGYGVRQS [JPH2_Y141]
Ans: N

Q: // inclusive: phosphorylation enrichment at least 0.6? input: KIVFVYVKKRS [DNAI2_Y7_E2K_YF]
Ans: Y

Q: // inclusive: phosphorylation enrichment at least 0.6? input: CTTIHYNFKCN [TP53_Y234_M237K_YF]
Ans: N

Q: // inclusive: phosphorylation enrichment at least 0.6? input: FSQQTYYPVSN [ABCD1_Y180_R182P]
Ans: Y

Q: // inclusive: phosphorylation enrichment at least 0.6? input: GVRFIYTIDGS [DCX_Y105_YF]
Ans: Y

Q: // inclusive: phosphorylation enrichment at least 0.6? input: GIMEEYQLPYY [BMPR1A_Y453_V450M]
Ans: Y

Q: // inclusive: phosphorylation enrichment at least 0.6? input: IVKAFYVHARA [AIPL1_Y268_R270H_YF]
Ans: Y

Q: // inclusive: phosphorylation enrichment at least 0.6? input: RLPSGYGLAYR [DLK1_Y262]
Ans: N

Q: // inclusive: phosphorylation enrichment at least 0.6? input: MSPPGYKLVTG [GJA1_Y286]
Ans: N
